Reported self-cleavage values are given for each entry in this list.
B1: CPEB3 Ribozyme (parent)
chain: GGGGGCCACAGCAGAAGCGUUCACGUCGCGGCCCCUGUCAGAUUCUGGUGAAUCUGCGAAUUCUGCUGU

Variants of: B1
Assay text: self-cleavage, relative activity (ratio to wild type); higher = more cleavage; co-transcriptional
Assay metric: self-cleavage

[[record]]
mutations = "A16G C34A"
number = 0.583

[[record]]
mutations = "A16U A51G"
number = 0.841

[[record]]
mutations = "A51C U53A"
number = 0.851

[[record]]
mutations = "G1A A40C"
number = 0.028

[[record]]
mutations = "U44A G48A"
number = 0.953

[[record]]
mutations = "G25A A59G"
number = 0.208

[[record]]
mutations = "C34U C35A"
number = 0.194

[[record]]
mutations = "A13U G28A"
number = 0.134

[[record]]
mutations = "G1A A8U"
number = 0.0637

[[record]]
mutations = "C6G G14C"
number = 0.0817

[[record]]
mutations = "G3U C32U"
number = 0.0936

[[record]]
mutations = "U46C U62C"
number = 0.895

[[record]]
mutations = "U21G C54U"
number = 0.591

[[record]]
mutations = "C18G C29U"
number = 0.156

[[record]]
mutations = "A23G U62G"
number = 0.75

[[record]]
mutations = "A23G A60G"
number = 0.866

[[record]]
mutations = "G1U U26C"
number = 0.0437

[[record]]
mutations = "U38G U69C"
number = 0.412

[[record]]
mutations = "G4C A23C"
number = 0.432

[[record]]
mutations = "G58U C63G"
number = 1.01

[[record]]
mutations = "C32G U64A"
number = 0.235

[[record]]
mutations = "U53C C66G"
number = 0.477

[[record]]
mutations = "G2U G28C"
number = 0.0331

[[record]]
mutations = "G41U G47U"
number = 0.999

[[record]]
mutations = "U44G U67A"
number = 0.883

[[record]]
mutations = "U21C C32U"
number = 0.918

[[record]]
mutations = "C6A A10U"
number = 0.903

[[record]]
mutations = "G65C C66G"
number = 0.65

[[record]]
mutations = "G17A U53G"
number = 0.38

[[record]]
mutations = "A51C"
number = 0.989

[[record]]
mutations = "G5A A13C"
number = 0.637

[[record]]
mutations = "G2A G17A"
number = 0.0268

[[record]]
mutations = "C32G U43A"
number = 0.238

[[record]]
mutations = "A23U A52G"
number = 0.642

[[record]]
mutations = "C12G A51C"
number = 0.79

[[record]]
mutations = "G31A U44G"
number = 0.585

[[record]]
mutations = "G1A A15U"
number = 0.105

[[record]]
mutations = "G1C C35G"
number = 0.161

[[record]]
mutations = "U55C G56U"
number = 0.686

[[record]]
mutations = "G3A C66G"
number = 0.597

[[record]]
mutations = "C12A G41U"
number = 0.286

[[record]]
mutations = "G11U U43A"
number = 0.392

[[record]]
mutations = "U36C A52C"
number = 0.997

[[record]]
mutations = "G3A C32U"
number = 0.302

[[record]]
mutations = "G37U U64A"
number = 0.269

[[record]]
mutations = "A59U U64A"
number = 0.459

[[record]]
mutations = "G37C C39A"
number = 0.215

[[record]]
mutations = "A59G C63A"
number = 0.857

[[record]]
mutations = "U36A A59C"
number = 0.157

[[record]]
mutations = "G5U C66U"
number = 0.299

[[record]]
mutations = "C7G C39U"
number = 0.326

[[record]]
mutations = "A16U C39U"
number = 0.533

[[record]]
mutations = "G14U G25U"
number = 0.124

[[record]]
mutations = "G3U G48A"
number = 0.245

[[record]]
mutations = "C12U U26G"
number = 0.925

[[record]]
mutations = "G48C G56C"
number = 0.778

[[record]]
mutations = "U62C"
number = 0.927

[[record]]
mutations = "C18A U38C"
number = 0.0484

[[record]]
mutations = "G25C G31C"
number = 0.143

[[record]]
mutations = "G1A G17A"
number = 0.0759

[[record]]
mutations = "U21A U49C"
number = 0.972

[[record]]
mutations = "A60G U61A"
number = 0.632

[[record]]
mutations = "C54G"
number = 0.951

[[record]]
mutations = "C45G U61A"
number = 0.922

[[record]]
mutations = "G56A U67C"
number = 0.913

[[record]]
mutations = "C39U G65U"
number = 0.498

[[record]]
mutations = "U21C G56A"
number = 0.657

[[record]]
mutations = "G37U"
number = 0.319

[[record]]
mutations = "C7U G47C"
number = 0.917

[[record]]
mutations = "U21A A42C"
number = 0.902

[[record]]
mutations = "A16G C39U"
number = 0.808

[[record]]
mutations = "C7A U64G"
number = 0.355

[[record]]
mutations = "C18U U21C"
number = 0.389

[[record]]
mutations = "G58C G65U"
number = 0.842

[[record]]
mutations = "G37U G65U"
number = 0.265

[[record]]
mutations = "C34G G47C"
number = 0.724

[[record]]
mutations = "A8C C57A"
number = 0.352

[[record]]
mutations = "C24G U62A"
number = 0.27

[[record]]
mutations = "A52U U64G"
number = 0.666

[[record]]
mutations = "G11A U49A"
number = 0.926

[[record]]
mutations = "C6A C18A"
number = 0.167

[[record]]
mutations = "U21A U43G"
number = 0.833

[[record]]
mutations = "G14A C45U"
number = 0.778

[[record]]
mutations = "G50C G65A"
number = 0.885

[[record]]
mutations = "C24U G25A"
number = 0.212

[[record]]
mutations = "C45A A59C"
number = 0.613

[[record]]
mutations = "C34U U69A"
number = 1.01

[[record]]
mutations = "C33A U61A"
number = 0.599

[[record]]
mutations = "G31A A51G"
number = 0.928

[[record]]
mutations = "G3U G56U"
number = 0.109

[[record]]
mutations = "A23G G65C"
number = 0.537

